Reference source: patent US7531557B2

Target: mu opioid receptor (MOR) (Homo sapiens, UniProt P35372)
Sequence (P35372 whole entry): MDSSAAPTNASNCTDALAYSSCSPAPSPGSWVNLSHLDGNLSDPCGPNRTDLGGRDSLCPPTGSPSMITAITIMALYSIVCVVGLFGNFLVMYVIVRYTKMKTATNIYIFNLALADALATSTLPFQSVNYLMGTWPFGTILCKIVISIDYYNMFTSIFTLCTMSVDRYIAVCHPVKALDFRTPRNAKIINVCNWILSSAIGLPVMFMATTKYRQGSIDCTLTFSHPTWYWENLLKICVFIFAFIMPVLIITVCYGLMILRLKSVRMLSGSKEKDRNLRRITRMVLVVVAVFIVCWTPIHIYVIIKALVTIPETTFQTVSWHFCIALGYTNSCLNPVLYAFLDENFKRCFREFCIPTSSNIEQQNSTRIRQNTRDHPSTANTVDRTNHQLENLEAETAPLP
Experiment: SPA-based GTP-γ-S binding assay, antagonist mode, mu
Assay type: biochemical
Conditions: antagonist assay against DAMGO 1 micromolar; Kb by Cheng-Prusoff equation; read-out: In Vitro Antagonism GTP-γ-S Kb Mu
Decision: Kb compared against 0.3 nM; not below it gives Y, below it gives N.

-- ask State whether the measured Kb reaches 0.3 nM, counting equality as reaching it, for NC(=O)c1ccc(Oc2ccc(CCNCc3cccc(Cl)c3)cc2Cl)nc1
-- reply Y

-- ask State whether the measured Kb reaches 0.3 nM, counting equality as reaching it, for Cc1ccccc1CNCCc1ccc(Oc2ccc(C(N)=O)cn2)c(Cl)c1
-- reply N
